Procedure text: Determination of aqueous (kinetic) solubility
Assay type: physicochemical
Study conditions: aqueous buffer, kinetic from dmso stock, buffer pH 7.4
Reported property: solubility

[[record]]
molecule = "C[C@H](C(N)=O)n1ccc2c(NC(=O)Cc3ccc(F)c(Br)c3)cccc2c1=O [Compound 307]"
result = "< 25 µM"

[[record]]
molecule = "Cc1ccc2c(=O)n([C@H](C)CO)ccc2c1NC(=O)Cc1ccc(C(F)(F)F)cc1 [Compound 397]"
result = "51 to 75 µM"

[[record]]
molecule = "C[C@H](CO)n1ccc2c(NC(=O)Cc3ccc(F)c(C(F)(F)F)c3)cccc2c1=O [Compound 339]"
result = "> 75 µM"

[[record]]
molecule = "C[C@H](C(=O)Nc1cccc2c(=O)n([C@@H](C)C(N)=O)ccc12)c1ccc(Cl)cc1 [Compound 265]"
result = "26 to 50 µM"

[[record]]
molecule = "C[C@H](CO)n1ccc2c(NC(=O)Cc3cccc(C(F)(F)F)c3F)cccc2c1=O [Compound 324]"
result = "> 75 µM"

[[record]]
molecule = "C[C@H](CO)n1ccc2c(NC(=O)Cc3ccc(C(F)(F)F)cc3C(F)(F)F)cccc2c1=O [Compound 361]"
result = "> 75 µM"

[[record]]
molecule = "C[C@@H](C(N)=O)n1ccc2c(NC(=O)Cc3ccc(C(F)(F)F)cc3)cccc2c1=O [Compound 351]"
result = "< 25 µM"

[[record]]
molecule = "C[C@H](C(N)=O)n1ccc2c(NC(=O)[C@H](C)c3ccc(Cl)cc3)cccc2c1=O [Compound 262]"
result = "> 75 µM"

[[record]]
molecule = "NC(=O)Cn1ccc2c(NC(=O)Cc3ccc(Cl)c(C(F)(F)F)c3)cccc2c1=O [Compound 249]"
result = "< 25 µM"

[[record]]
molecule = "C[C@H](CO)n1ccc2c(NC(=O)Cc3ccc(Cl)c(F)c3)cccc2c1=O [Compound 330]"
result = "> 75 µM"


Ask: So what does the record say about solubility for Cc1ccc2c(=O)n(CCO)ccc2c1NC(=O)Cc1ccc(C(F)(F)F)c(F)c1 [Compound 400] ?
Reply: > 75 µM

Ask: So what does the record say about solubility for O=C(Cc1ccc(Cl)cc1Cl)Nc1cccc2c(=O)n(CCO)ccc12 [Compound 69] ?
Reply: < 25 µM

Ask: So what does the record say about solubility for C[C@H](C(=O)Nc1cccc2c(=O)n([C@H](C)C(N)=O)ccc12)c1ccc(Cl)c(Cl)c1 [Compound 268] ?
Reply: 51 to 75 µM

These entries and their values trace back to patent US20110092476A1.
